Cited source for all entries: PubChem BioAssay (NCI)

Assay: NCI Yeast Anticancer Drug Screen. Data for the cln2 rad14 strain (AID 165)
Settings: S. cerevisiae cln2 rad14 strain, stronger effect = higher value; at 50.0 µM unless noted
Protocol: Growth inhibition of yeast strains with defined genetic alterations is measured as a screen for potential anti-cancer activity. Selected strains with alterations in DNA damage repair or cell cycle control were exposed to compounds and growth inhibition was measured relative to vehicle treated controls. The strain used in this assay is cln2 rad14
About 79,000 compounds went through this panel and 15% of them were active in at least one assay; those are over-represented in the sample as a whole.
Would you mind labelling by growth inhibition? At or over -10% is Y, under is N.

Quick check, growth inhibition >= -10%? Nc1nnc2nc(CC(=O)c3ccc(Cl)c(Cl)c3)/c(=C/C(=O)c3ccc(Cl)c(Cl)c3)n12 Y

Quick check, growth inhibition >= -10%? CC(=O)Nc1cc([N+](=O)[O-])cc([N+](=O)[O-])c1O N

Quick check, growth inhibition >= -10%? Fc1ccc(/C=C2/c3cc(Cl)ccc3-c3c(Cl)cc(Cl)cc32)cc1 Y

Quick check, growth inhibition >= -10%? O=C1NC(Cc2ccccc2)C(=O)NC1Cc1ccccc1 (stereo not drawn) N

Quick check, growth inhibition >= -10%? c1c[nH]c(CN2CCOCC2)n1 Y

Quick check, growth inhibition >= -10%? O=c1/c(=C/c2ccccc2[N+](=O)[O-])sc2nc3ccccc3n12 N

Quick check, growth inhibition >= -10%? Nc1c(N2CCOCC2)c(=O)nc2[nH]/c(=C\c3ccccc3)c(=O)n12 Y

Quick check, growth inhibition >= -10%? c1ccc2cnncc2c1 Y

Quick check, growth inhibition >= -10%? NCc1cc(Br)ccc1O N

Quick check, growth inhibition >= -10%? CCOC(=O)C(CCc1ccccc1[N+](=O)[O-])(CCc1ccccc1[N+](=O)[O-])C(=O)OCC Y

Quick check, growth inhibition >= -10%? CCOC(=O)c1ccc(O)c(NC(C)=O)c1 N

Quick check, growth inhibition >= -10%? CC(CCC#CC(=O)O)OC1CCCCO1 (stereo not drawn) Y

Quick check, growth inhibition >= -10%? CCOCCC(=O)OCCCl Y

Quick check, growth inhibition >= -10%? CCOC(=S)Nc1ccccc1[N+](=O)[O-] N

Quick check, growth inhibition >= -10%? CCCCCCCC/C=C\CCCCCCCC(=O)NN N

Quick check, growth inhibition >= -10%? C=C(C)[C@H]1CC(=O)[C@@]2(C)C[C@H]3O[C@]3(C)CC/C=C(\C)CC[C@H]12 Y

Quick check, growth inhibition >= -10%? CC1=CC(C)(C)[C@H]2O[C@@]3(O)C[C@]4(C)[C@H]5C[C@@](C(C)C)(O[C@H]4c4ccoc4)O[C@H]4[C@]5(C3)O[C@@]1(O)[C@]24O N

Quick check, growth inhibition >= -10%? Fc1cccc2c(SCc3ccc(Cl)cc3Cl)cnnc12 N

Quick check, growth inhibition >= -10%? CCN(CC)CCN(CC)C(=S)Nc1ccccc1 Y

Quick check, growth inhibition >= -10%? COC(=O)c1cc(C)n(C)c(=O)c1CN N

Quick check, growth inhibition >= -10%? COc1cc(CCC(NC(C)=O)c2cccc(O)c(=O)c2)cc(OC)c1OC (stereo not drawn) N

Quick check, growth inhibition >= -10%? COc1ccc(/C=N\NC(=O)c2cnccn2)cc1 Y

Quick check, growth inhibition >= -10%? N=c1oc2ccc(Cl)cc2cc1C(=O)Nc1ccccc1 Y

Quick check, growth inhibition >= -10%? CCCCCCCCCCCCCCCCCC(=O)CBr N

Quick check, growth inhibition >= -10%? Cc1cc(C)c2c(c1)sc1n[nH]c(=S)n12 N

Quick check, growth inhibition >= -10%? COC1(OC)CC2C(=O)N(Cc3ccccc3)C1CC2S(=O)(=O)c1ccccc1 (stereo not drawn) Y

Quick check, growth inhibition >= -10%? C=C1CC[C@](C)(O)[C@@]2(C)CC[C@H]3C(=C(C)C)C(=O)C[C@]3(C)C[C@H]12 Y

Quick check, growth inhibition >= -10%? Fc1c(F)c(-c2c(F)c(F)c(S)c(F)c2F)c(F)c(F)c1S Y

Quick check, growth inhibition >= -10%? COc1ccc(/C=C2\C(=O)Nc3ccccc32)cc1OC N

Quick check, growth inhibition >= -10%? CC(O)c1ccc[cH-]1.CC(O)c1ccc[cH-]1.[Fe+2] (stereo not drawn) N

Quick check, growth inhibition >= -10%? COc1ccccc1N=Nc1c(O)n(-c2ccccc2OC)c(=S)n(-c2ccccc2)c1=O N

Quick check, growth inhibition >= -10%? Cc1ccc2nc(C=Nc3ccccc3Cl)cc(C)c2c1 Y

Quick check, growth inhibition >= -10%? CCCCNC(=S)NNC(=O)c1ccncc1 Y

Quick check, growth inhibition >= -10%? CSCCSC Y

Quick check, growth inhibition >= -10%? CCOC(=O)c1c(NS(=O)(=O)c2ccc(C)cc2)sc(C)c1-c1ccccc1 Y

Quick check, growth inhibition >= -10%? COC(=O)c1cc(C(=O)OC)c(CC(=O)C(=O)NC2C3CC4CC(C3)CC2C4)nc1CC(=O)C(=O)NC1C2CC3CC(C2)CC1C3 (stereo not drawn) Y

Quick check, growth inhibition >= -10%? Cc1ccc(O)cc1N(C)C N

Quick check, growth inhibition >= -10%? c1cncc(C2c3[nH]c4ccccc4c3CCN2CCCN2CCCCC2)c1 (stereo not drawn) Y

Quick check, growth inhibition >= -10%? CCSC(SCC)=C1C(=O)N(c2ccccc2)N=C1C Y

Quick check, growth inhibition >= -10%? [N-]=[N+]=Nc1c2c(nc3ccccc13)CCCC2 N

Quick check, growth inhibition >= -10%? OCc1ccccc1Sc1ccccc1CO Y

Quick check, growth inhibition >= -10%? BrC1CC2CCC1CC2 (stereo not drawn) Y

Quick check, growth inhibition >= -10%? N#CCN1CCCCCC1 Y

Quick check, growth inhibition >= -10%? COc1ccc(NC(=O)CC(=O)N2N=C(N3c4ccccc4Sc4ccccc43)CC2c2ccccc2)cc1 (stereo not drawn) Y

Quick check, growth inhibition >= -10%? Brc1ccccc1C#Cc1ccccc1Br Y

Quick check, growth inhibition >= -10%? CC[N+]1(CC)CC[N+]2(CC1)CC[N+]1(CC[N+](CC)(CC)CC1)CC2 N

Quick check, growth inhibition >= -10%? CC1=C(c2ccccc2)OC(c2ccccc2)=C[P+]1(c1ccccc1)c1ccccc1 Y
